- Test system: PC-3 prostate
- methodSummary: NCI tumour cell line growth inhibition, 48 h

# compound, TGI
rows = [
    ("NS(=O)(=O)c1ccc(N2N=C3c4ccccc4CC3C2c2ccc(Cl)cc2)cc1 (stereo not given)", "22.6 µM"),
    ("CCOC(=O)CCC(NC(=O)c1ccc(OCc2nc3ccccc3n3cccc23)cc1)C(=O)OCC (stereo not given)", "> 100 µM"),
    ("COc1cccc(/C=C2\\CCCCCC2=O)c1", "> 100 µM"),
    ("Cc1n[nH]c(=O)n1/N=C/c1c[nH]c2ccccc12", "> 100 µM"),
    ("CCOC(=O)CCC(NC(=O)c1ccc(Nc2nc3ccccc3nc2-c2cccs2)cc1)C(=O)OCC (stereo not given)", "> 100 µM"),
    ("CCOC(=O)[C@@]12CCC(C1=O)[C@](C)(O)C[C@@H]2c1ccccc1", "> 100 µM"),
    ("O=C(CCCl)NNC1=NCCN1", "> 100 µM"),
    ("COC(=O)C1=C(C(=O)OC)C23C=C(C)C1C2=C(C)C1(CC1)[C@@](C)(O)C3=O (stereo not given in full)", "32.9 µM"),
    ("CC(=O)Oc1cc2c(cc1OC(C)=O)[C@H]1CC[C@]3(C)[C@@H](OC(C)=O)CC[C@H]3[C@@H]1CC2", "25.5 µM"),
    ("CC(=O)OCC1OC(n2c(N)c(C#N)c(-c3ccc(C)cc3)c(C#N)c2=S)C(OC(C)=O)C(OC(C)=O)C1OC(C)=O (stereo not given)", "> 100 µM"),
    ("COC1=CC(c2ccc[nH]2)=N/C1=C\\c1ccc[nH]1", "13.6 µM"),
    ("CN(CCCCN(C)CCc1ccc(Cl)c(Cl)c1)CCCCN1CCCC1", "4.52 µM"),
    ("Cc1cccc(-c2cc(=S)c3cc(N4CCCC4)ccc3[nH]2)c1", "> 100 µM"),
    ("COc1ccc(N2C(=O)C3c4[nH]c5cccc(C)c5c4C4CCC(C(C)(C)C)CC4C3C2=O)cc1 (stereo not given)", "> 10 µM"),
    ("CCCc1nc2c(C)cc(-c3nc4ccccc4n3C)cc2n1Cc1ccc(-c2ccccc2C(=O)O)cc1", "> 100 µM"),
    ("CCOC(=O)CCC(NC(=O)Cc1ccc(Oc2nc3ccccc3nc2-c2cccs2)cc1)C(=O)OCC (stereo not given)", "> 100 µM"),
    ("CC(C)NCC(O)c1ccc(OCc2ccccc2)c(OCc2ccccc2)c1-c1ccccc1 (stereo not given)", "3.11 µM"),
    ("O=C(OC(=C(c1ccccc1)c1ccccc1)N1CCCC1=S)C(c1ccccc1)c1ccccc1", "> 10 µM"),
    ("COc1ccc(O)c(C=NCCCN=Cc2cc(OC)ccc2O)c1", "> 100 µM"),
    ("C[C@@H]1C=C2C(=O)O[C@@H]3CC[C@H](C1)[C@]23O", "14.9 µM"),
]

Taken from PubChem BioAssay (NCI).
